IC50 data for UniProtKB Q02127 follow.
Sequence (Q02127 whole entry): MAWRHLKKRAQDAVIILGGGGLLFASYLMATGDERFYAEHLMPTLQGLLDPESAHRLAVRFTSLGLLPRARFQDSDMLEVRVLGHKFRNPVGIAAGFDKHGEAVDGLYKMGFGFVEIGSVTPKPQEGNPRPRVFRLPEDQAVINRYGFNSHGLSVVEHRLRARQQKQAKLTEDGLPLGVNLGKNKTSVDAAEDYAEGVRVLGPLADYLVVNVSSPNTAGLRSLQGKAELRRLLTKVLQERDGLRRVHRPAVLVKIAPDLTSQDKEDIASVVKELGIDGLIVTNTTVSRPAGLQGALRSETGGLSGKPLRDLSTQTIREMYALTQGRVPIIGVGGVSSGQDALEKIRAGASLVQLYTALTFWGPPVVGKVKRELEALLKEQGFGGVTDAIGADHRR
outcome-measure: IC50

cpd-smiles: CN1CCN(Cc2ccccc2-c2ccc(-c3cc(C(=O)O)c4nn(C)nc4c3)cc2)CC1
outcome-measure: IC50
obs-value: > 1 µM
--
cpd-smiles: Cc1ccccc1-c1ccc(-c2cc(C(=O)O)c3c(c2)nnn3C)cc1
outcome-measure: IC50
obs-value: < 0.1 µM
--
cpd-smiles: Cn1nc2cc(-c3c(F)c(F)c(-c4cccc(CN5CCOCC5)c4)c(F)c3F)cc(C(=O)O)c2n1
outcome-measure: IC50
obs-value: 0.101 to 1 µM
--
cpd-smiles: Cc1ccc(C)n1-c1ccc(-c2cc(C(=O)O)c3c(c2)nnn3C)cc1
outcome-measure: IC50
obs-value: < 0.1 µM
--
cpd-smiles: Cn1nc2cc(-c3c(F)c(F)c(-c4ccccc4)c(F)c3F)cc(C(=O)O)c2n1
outcome-measure: IC50
obs-value: < 0.1 µM
--
cpd-smiles: CN(C)Cc1cccc(-c2c(F)c(F)c(-c3cc(C(=O)O)c4c(c3)nnn4C)c(F)c2F)c1
outcome-measure: IC50
obs-value: 0.101 to 1 µM

Cited source for all entries: patent US11147801B2
